# TARGET ENTITY: JAK1 (aa 850-1154, catalytic domain, GST-tag) (Homo sapiens, UniProt P23458)
# Construct: JAK1 (aa 850-1154) and TYK2 (aa 871-1187) are expressed with an N-terminally fused GST-tag; GST (N); purchased Carna Biosciences, Inc; host or cells: baculovirus expression system
# Sequence (P23458 850-1154): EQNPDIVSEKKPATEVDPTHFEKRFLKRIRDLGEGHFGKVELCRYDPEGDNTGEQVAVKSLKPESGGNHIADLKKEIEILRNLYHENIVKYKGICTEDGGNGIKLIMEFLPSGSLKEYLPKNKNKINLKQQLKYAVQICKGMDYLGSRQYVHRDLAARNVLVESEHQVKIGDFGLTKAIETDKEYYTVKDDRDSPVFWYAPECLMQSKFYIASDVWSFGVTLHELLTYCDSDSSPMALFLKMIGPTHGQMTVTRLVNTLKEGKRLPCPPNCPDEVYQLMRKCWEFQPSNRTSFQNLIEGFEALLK
# METHOD DESCRIPTION: JAK kinase assay (HTRF, phosphorylation of TK substrate-biotin), JAK1
# Format: biochemical
# PROTOCOL CONDITIONS: ATP at Km (7 μM); read-out: JAK1 kinase inhibitory activity (EC50 indicator)
ASSAY ENDPOINT: EC50

Request: Form: Entry = O=C(c1cc2cc(F)cc(F)c2[nH]1)N1C2CCC1CN(c1ncnc3[nH]ccc13)C2 | System = JAK1 (aa 850-1154, catalytic domain, GST-tag) (Homo sapiens, UniProt P23458) | EC50 = ____
Result: < 100 nM

Request: Form: Entry = CCC(=O)N1[C@@H]2CC[C@H]1CN(c1ncnc3[nH]ccc13)C2 | System = JAK1 (aa 850-1154, catalytic domain, GST-tag) (Homo sapiens, UniProt P23458) | EC50 = ____
Result: 100 to 500 nM

Request: Form: Entry = CC(C)(C)OC(=O)N1[C@@H]2CC[C@H]1CN(c1ncnc3[nH]ccc13)C2 | System = JAK1 (aa 850-1154, catalytic domain, GST-tag) (Homo sapiens, UniProt P23458) | EC50 = ____
Result: 100 to 500 nM

Request: Form: Entry = O=C(c1cc2ccccc2[nH]1)N1CCN(c2ncnc3[nH]ccc23)CC12CC2 | System = JAK1 (aa 850-1154, catalytic domain, GST-tag) (Homo sapiens, UniProt P23458) | EC50 = ____
Result: < 100 nM
